- TARGET UNDER TEST: UniProt:P47745
- Sequence (P47745 whole entry): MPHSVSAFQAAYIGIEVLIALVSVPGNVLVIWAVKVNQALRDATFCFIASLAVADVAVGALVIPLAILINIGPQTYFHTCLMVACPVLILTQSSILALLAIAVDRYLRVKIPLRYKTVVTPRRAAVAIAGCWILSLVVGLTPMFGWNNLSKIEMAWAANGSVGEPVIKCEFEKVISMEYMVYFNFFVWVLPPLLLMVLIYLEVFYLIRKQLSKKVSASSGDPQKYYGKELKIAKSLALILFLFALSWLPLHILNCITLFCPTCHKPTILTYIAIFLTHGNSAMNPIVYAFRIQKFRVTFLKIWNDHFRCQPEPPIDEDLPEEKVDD
- METHOD DESCRIPTION: Binding affinity against adenosine A1 receptor using N6-[3H]cyclohexyladenosine as radioligand in guinea pig forebrain membranes
- Type: cell membranes, Brain membranes
pKi: −log10 of the molar value.
READOUT TYPE: pKi

Solved cases (2 shown):
MOLECULE SMILES | pKi
CCCn1c(=O)c2nc(-c3cc4ccccc4s3)[nH]c2n(CCC)c1=O | < 4.00
CCCn1c(=O)c2nc(-c3nn[nH]n3)[nH]c2n(CCC)c1=O | < 5.00

# evaluate next
May I ask what pKi has been recorded for `CCCn1c(=O)c2nc(-c3cc4ccccc4n3C)[nH]c2n(CCC)c1=O` ? < 4.00
